Test system: HeLa
Assay: Inhibition of SERCA in human HeLa cells assessed as increase in cytosolic calcium level at 1.00 x 10^-5M measured over 300 secs by Fluo-4 NW dye based FLIPR analysis relative to control
Type: cell-based
result-type: inhibition

1) C/C=C(/C)C(=O)O[C@@H]1C[C@H]2C(=C1C)[C@@H]1OC(=O)[C@@](C)(O)[C@@]1(O)[C@@H](OC(=O)C=C(C)C)C[C@]2(C)OC(C)=O    92 to 102%
2) CCCCCCCC(=O)O[C@H]1[C@H]2C(=C(C)[C@@H]1OC(=O)c1sccc1C)[C@@H]1OC(=O)[C@@](C)(O)[C@@]1(O)[C@@H](OC(=O)CCC)C[C@]2(C)OC(C)=O    92 to 101%

Which inhibition value belongs to `C/C=C(/C)C(=O)O[C@H]1C(C)=C2[C@H]([C@@H]1OC(=O)CCCCCCC)[C@@](C)(OC(C)=O)C[C@H](OC(=O)[C@@H](C)CC)[C@@]1(O)[C@H]2OC(=O)[C@@]1(C)O` ? 89.4 to 110%

Request: `CCCCCCCC(=O)O[C@H]1[C@H]2C(=C(C)[C@@H]1OC(=O)CC(C)C)[C@@H]1OC(=O)[C@@](C)(O)[C@@]1(O)[C@@H](OC(=O)CCC)C[C@]2(C)OC(C)=O` 89.7 to 96.6%

Request: `C/C=C(/C)C(=O)O[C@H]1C(C)=C2[C@H]([C@@H]1OC(=O)CCCCCCC)[C@@](C)(OC(C)=O)C[C@H](OC(=O)CCC)[C@@]1(O)[C@H]2OC(=O)[C@@]1(C)O` 89 to 107%

Request: `CCCCCCCC(=O)O[C@H]1[C@H]2C(=C(C)[C@@H]1OC(=O)[C@H](C)CC)[C@@H]1OC(=O)[C@@](C)(O)[C@@]1(O)[C@@H](OC(=O)CCC)C[C@]2(C)OC(C)=O` 87.4 to 108%

Request: `CCCCCCCC(=O)O[C@H]1[C@H]2C(=C(C)[C@@H]1OC(=O)c1cccs1)[C@@H]1OC(=O)[C@@](C)(O)[C@@]1(O)[C@@H](OC(=O)CCC)C[C@]2(C)OC(C)=O` 92.9 to 102%

Request: `C/C=C(/C)C(=O)O[C@H]1C(C)=C2[C@H]([C@@H]1OC(=O)CCCCC)[C@@](C)(OC(C)=O)C[C@H](OC(=O)CCC)[C@@]1(O)[C@H]2OC(=O)[C@@]1(C)O` 86.6 to 100%

* * *

Test: Inhibition of SERCA in human HeLa cells assessed as increase in cytosolic calcium level measured over 300 secs by Fluo-4 NW dye based FLIPR analysis
Format: cell-based
result-type: IC50

// known answers, use as guide
1) CCCCCCCC(=O)O[C@H]1[C@H]2C(=C(C)[C@@H]1OC(=O)CC(C)C)[C@@H]1OC(=O)[C@@](C)(O)[C@@]1(O)[C@@H](OC(=O)CCC)C[C@]2(C)OC(C)=O    310 to 576 nM
2) C/C=C(/C)C(=O)O[C@H]1C(C)=C2[C@H]([C@@H]1OC(=O)CCCCCCC)[C@@](C)(OC(C)=O)C[C@H](OC(=O)CCC)[C@@]1(O)[C@H]2OC(=O)[C@@]1(C)O    28.5 to 51 nM
3) CCCCCCCC(=O)O[C@H]1[C@H]2C(=C(C)[C@@H]1OC(=O)[C@H](C)CC)[C@@H]1OC(=O)[C@@](C)(O)[C@@]1(O)[C@@H](OC(=O)CCC)C[C@]2(C)OC(C)=O    57.7 to 104 nM

Which IC50 value belongs to `C/C=C(/C)C(=O)O[C@@H]1C[C@H]2C(=C1C)[C@@H]1OC(=O)[C@@](C)(O)[C@@]1(O)[C@@H](OC(=O)C=C(C)C)C[C@]2(C)OC(C)=O` ? 204 to 268 nM
